# Test system: Leukemia L-1210 cells
# assay.remarks: Test 1: antitumor activity against leukemia induced in CDF1 mice by Leukemia L-1210 cells (life-span increase)
# Assay type: in vivo
# applied.conditions: Dose 2.5 mg/kg/day, intraperitoneally once per day for 9 consecutive days, observation 60 days
Recorded % Increase in life-span (T/C, %) by entry
Report as a plain number; the unit % is understood.

{"columns": ["compound", "reading.unit", "% Increase in life-span (T/C, %)"],
 "data": [
  ["COc1cccc2c1C(=O)c1c(O)c3c(c(O)c1C2=O)C[C@@](O)(C(C)=O)C[C@@H]3O[C@@H]1O[C@@H](C)[C@@H](O)[C@@H](O)[C@H]1F [reference compound]", "%", 217],
  ["COc1cccc2c1C(=O)c1c(O)c3c(c(O)c1C2=O)C[C@@](O)(C(=O)CO)C[C@@H]3O[C@H]1C[C@H](N)[C@H](O)[C@H](C)O1 [Adriamycin, reference compound]", "%", 228],
  ["C[C@@H]1O[C@@H](O[C@H]2C[C@](O)(C(=O)CO)Cc3c(O)c4c(c(O)c32)C(=O)c2ccccc2C4=O)[C@H](F)[C@H](O)[C@H]1O [Example 4]", "%", 53],
  ["COc1cccc2c1C(=O)c1c(O)c3c(c(O)c1C2=O)C[C@@](O)(C(C)=O)C[C@@H]3O[C@@H]1O[C@@H](C)[C@H](O)[C@@H](O)[C@H]1F [Example 1]", "%", 280],
  ["COc1cccc2c1C(=O)c1c(O)c3c(c(O)c1C2=O)C[C@@](O)(C(=O)CO)C[C@@H]3O[C@@H]1O[C@@H](C)[C@H](O)[C@@H](O)[C@H]1F [Example 3]", "%", 231],
  ["CC(=O)[C@]1(O)Cc2c(O)c3c(c(O)c2[C@@H](O[C@@H]2O[C@@H](C)[C@H](O)[C@@H](O)[C@H]2F)C1)C(=O)c1ccccc1C3=O [Example 2]", "%", 134]
]}

Next up:
What value of % Increase in life-span (T/C, %) has been reported for the following compound? COc1cccc2c1C(=O)c1c(O)c3c(c(O)c1C2=O)C[C@@](O)(C(C)=O)C[C@@H]3O[C@H]1C[C@H](N)[C@H](O)[C@H](C)O1 [Daunomycin, reference compound] 151
